biological target: T1, Antibody No. 465.1; experiment: peptide blocking ELISA on plate-bound VISTA, peptide 2 ug/mL
T1 construct: also called Ab No. 465.1
The reader will find reported percent reduction in ELISA signal values listed item by item below.
All answers are understood in %, so give the number only.

Example results:
GHQAANTSHDLAQRH (synthetic overlapping peptide from human VISTA) [Spiked Peptide 15 (GHQAANTSHDLAQRH)] = 0
GEVQTCSERRPIRNL (synthetic overlapping peptide from human VISTA) [Spiked Peptide 10 (GEVQTCSERRPIRNL)] = 0
LAQRHGLESASDHHG (synthetic overlapping peptide from human VISTA) [Spiked Peptide 17 (LAQRHGLESASDHHG)] = 8
YRSSRGEVQTCSERR (synthetic overlapping peptide from human VISTA) [Spiked Peptide 9 (YRSSRGEVQTCSERR)] = 3

Task item: So what's the measured percent reduction in ELISA signal for this one? FYKTWYRSSRGEVQT (synthetic overlapping peptide from human VISTA) [Spiked Peptide 8 (FYKTWYRSSRGEVQT)]
Reply: 0

Task item: Need percent reduction in ELISA signal, item GLESASDHHGNFSIT (synthetic overlapping peptide from human VISTA) [Spiked Peptide 18 (GLESASDHHGNFSIT)]
Reply: 0

Task item: Which value of percent reduction in ELISA signal has been reported for PYSLYVCPEGQNVTL (synthetic overlapping peptide from human VISTA) [Spiked Peptide 2 (PYSLYVCPEGQNVTL)] in the records?
Reply: 0

Task item: Need percent reduction in ELISA signal of NTSHDLAQRHGLESA (synthetic overlapping peptide from human VISTA) [Spiked Peptide 16 (NTSHDLAQRHGLESA)] , thanks.
Reply: 0

Task item: // lookup percent reduction in ELISA signal for HRVHGAMELQVQTGK (synthetic overlapping peptide from human VISTA) [Spiked Peptide 26 (HRVHGAMELQVQTGK)]
Reply: 0

Task item: I would be grateful if you could share the reported percent reduction in ELISA signal for SDHHGNFSITMRNLT (synthetic overlapping peptide from human VISTA) [Spiked Peptide 19 (SDHHGNFSITMRNLT)] .
Reply: 3

Task item: Quick check: percent reduction in ELISA signal of VQTGKDAPSNCVVYP (synthetic overlapping peptide from human VISTA) [Spiked Peptide 28 (VQTGKDAPSNCVVYP)] ?
Reply: 0

Task item: So what does the record say about percent reduction in ELISA signal for LYCCLVVEIRHHHSE (synthetic overlapping peptide from human VISTA) [Spiked Peptide 23 (LYCCLVVEIRHHHSE)] ?
Reply: 2
